Tested on: MCF7
assaySummary: Growth inhibition of human MCF7 cells incubated for 72 hrs by cell counting based method
Assay type: functional
protocolConditions: MCF7, 72 h
Note to self: use Y only for GI50 readings below 20 µM; a reading exactly at 20 µM still gets N.

A record lists COC(=O)c1ccc(NCC2=CC(=O)c3ccccc3C2=O)cc1 . Is its GI50 below 20 µM?
N

Record: O=C(CCc1ccc(O)c(Cl)c1)NCc1csc(=O)[nH]1
N

Record: CC[C@H](Nc1cc(C)nc(Nc2cccc(O)c2)n1)c1nccs1
N

Record: N#Cc1ccc(C(c2ccc(C#N)cc2)n2cncn2)cc1
Y

Record: N[C@@H]1CCN(Cc2cc(O)c3cc(F)ccc3n2)C[C@H]1O
N

More entries:
A record lists O=C1c2c(O)ccc(O)c2C(=O)c2c(NCCCO)ccc(NCCCO)c21 . Is its GI50 below 20 µM?
Y

----------
Test system: MDA-MB-231
assaySummary: Growth inhibition of human MDA-MB-231 cells incubated for 72 hrs by cell counting based method
Assay type: functional
protocolConditions: MDA-MB-231, 72 h
observationType: GI50

Worked examples, 2 compounds total:
Under MDA-MB-231: GI50 value of N[C@@H]1CCN(Cc2cc(O)c3cc(F)ccc3n2)C[C@H]1O ?
> 200 µM

Record: N#Cc1ccc(C(c2ccc(C#N)cc2)n2cncn2)cc1
> 10 µM

More entries:
Under MDA-MB-231: GI50 value of O=C(CCc1ccc(O)c(Cl)c1)NCc1csc(=O)[nH]1 ?
> 200 µM
